Reported ratio Ki (nM) control/+ phenythoin by item:
# system: S1R (Rattus norvegicus, UniProt Q9R0C9)
# Sequence (Q9R0C9 whole entry): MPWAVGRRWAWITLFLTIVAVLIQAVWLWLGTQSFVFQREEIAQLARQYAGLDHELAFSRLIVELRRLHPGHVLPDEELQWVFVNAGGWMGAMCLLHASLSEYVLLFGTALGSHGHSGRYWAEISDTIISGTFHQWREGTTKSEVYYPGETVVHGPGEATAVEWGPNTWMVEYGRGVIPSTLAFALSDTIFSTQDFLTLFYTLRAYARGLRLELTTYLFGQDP
# assay.overview: S1R functional assay: S1R radioligand binding with or without phenytoin
# Design: incubating 200 μL of membrane preparation with 50 μL of 20 nM; from tissue; host or cells: membrane preparation
# run.conditions: >1 agonist, ≤1 antagonist
Answer with the value's number alone.

Challenge: Could you share which ratio Ki (nM) control/+ phenythoin value was measured for c1ccc(CCCN2CCCC3CN(Cc4ccccc4)CC32)cc1 (centres unmarked) ?
Response given: 0.8

Challenge: ratio Ki (nM) control/+ phenythoin lookup needed for CN1CCN(CCc2ccc(Cl)c(Cl)c2)CC1.Cl.Cl [BD-1063, reference compound] , thanks.
Response given: 0.7

Challenge: I'd like to know its ratio Ki (nM) control/+ phenythoin. The compound in question is O=C(Cc1ccccc1)N1CCC2(CC1)CN(CCc1ccccc1)C2
Response given: 0.9

Challenge: Any idea what ratio Ki (nM) control/+ phenythoin was measured for c1ccc(CCN2CC3(CCN(Cc4ccccc4)CC3)C2)cc1 ?
Response given: 2.6

Challenge: // ratio Ki (nM) control/+ phenythoin lookup, key: C=CCN1CC[C@]2(C)c3cc(O)ccc3C[C@H]1[C@H]2C [SKF-10,047, reference compound]
Response given: 5.8

Origin of the recorded values: paper PMC10197133
